- TARGET_ENTITY: GABA-A receptor; alpha-2/beta-3/gamma-2 (Homo sapiens, UniProt P18507+P28472+P47869)
- Sequence (P18507 whole entry): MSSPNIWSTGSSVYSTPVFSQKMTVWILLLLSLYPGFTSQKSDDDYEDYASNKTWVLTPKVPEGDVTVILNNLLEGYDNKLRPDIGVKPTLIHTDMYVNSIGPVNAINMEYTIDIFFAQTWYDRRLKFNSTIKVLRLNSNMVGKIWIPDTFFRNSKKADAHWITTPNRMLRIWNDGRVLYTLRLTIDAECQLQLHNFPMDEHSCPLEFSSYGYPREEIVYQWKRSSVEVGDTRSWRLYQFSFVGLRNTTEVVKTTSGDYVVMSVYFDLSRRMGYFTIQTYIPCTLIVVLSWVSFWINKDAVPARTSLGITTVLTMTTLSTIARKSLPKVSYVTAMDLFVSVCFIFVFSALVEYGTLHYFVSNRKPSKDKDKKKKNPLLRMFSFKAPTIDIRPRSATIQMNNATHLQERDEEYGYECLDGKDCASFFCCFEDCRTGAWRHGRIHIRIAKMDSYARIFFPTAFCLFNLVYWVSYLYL
- Sequence (P28472 whole entry): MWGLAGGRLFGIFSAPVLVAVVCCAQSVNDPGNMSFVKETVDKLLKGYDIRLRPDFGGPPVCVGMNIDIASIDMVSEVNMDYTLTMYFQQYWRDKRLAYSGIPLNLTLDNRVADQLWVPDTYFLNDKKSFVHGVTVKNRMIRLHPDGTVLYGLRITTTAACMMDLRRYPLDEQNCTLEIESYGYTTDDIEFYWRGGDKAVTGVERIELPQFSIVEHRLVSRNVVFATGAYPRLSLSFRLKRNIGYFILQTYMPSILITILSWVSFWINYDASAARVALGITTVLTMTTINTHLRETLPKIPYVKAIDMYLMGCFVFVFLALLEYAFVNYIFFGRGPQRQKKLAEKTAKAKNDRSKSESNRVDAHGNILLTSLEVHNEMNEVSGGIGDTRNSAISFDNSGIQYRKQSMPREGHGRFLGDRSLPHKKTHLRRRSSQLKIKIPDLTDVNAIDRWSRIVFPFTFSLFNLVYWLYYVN
- Sequence (P47869 whole entry): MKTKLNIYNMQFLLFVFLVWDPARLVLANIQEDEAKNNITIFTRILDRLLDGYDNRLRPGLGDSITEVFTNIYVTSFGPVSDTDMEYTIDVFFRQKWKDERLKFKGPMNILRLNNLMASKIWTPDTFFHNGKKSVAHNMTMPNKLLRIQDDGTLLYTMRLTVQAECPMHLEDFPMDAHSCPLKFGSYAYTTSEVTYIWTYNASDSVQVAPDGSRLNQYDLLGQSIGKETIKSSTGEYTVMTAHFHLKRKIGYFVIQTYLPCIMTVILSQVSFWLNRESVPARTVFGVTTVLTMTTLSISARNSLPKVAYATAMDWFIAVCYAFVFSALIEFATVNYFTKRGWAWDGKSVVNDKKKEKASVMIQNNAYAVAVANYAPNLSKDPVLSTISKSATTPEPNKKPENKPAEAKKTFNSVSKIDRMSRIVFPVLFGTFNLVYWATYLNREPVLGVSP
- EXPERIMENT_SUMMARY: Binding affinity to human recombinant gamma-aminobutyric-acid (GABA) A receptor alpha-2-beta-3-gamma-2
Threshold 10 nM: Ki strictly smaller gives Met, otherwise Not met.

Study these solved cases before continuing.
CCCOc1ccc2[nH]c3cnc(C(=O)NN)c(COC)c3c2c1	Not met
Clc1ccc2c(c1)[nH]c1c2ncc2[nH]c3ccccc3c21	Not met
CN1C(=O)CN=C(c2ccsc2)c2cc(Cl)ccc21	Not met

Challenge: Hi there! Is Ki for CN1C(=O)CN=C(c2ccccc2)c2cc(C#N)ccc21 below 10 nM, do you know?
Response given: Not met

Challenge: Hi there! Is Ki for COc1ccc2c(c1)[nH]c1c2ncc2[nH]c3ccccc3c21 below 10 nM, do you know?
Response given: Not met

Challenge: Hi there! Is Ki for CCCC(=O)c1cc2c(cn1)[nH]c1ccccc12 below 10 nM, do you know?
Response given: Not met

Challenge: Hi there! Is Ki for CN1C(=O)CN=C(c2ccccc2)c2cc(C#C[Si](C)(C)C)ccc21 below 10 nM, do you know?
Response given: Not met

* * *

- TARGET_ENTITY: GABA-A receptor; alpha-6/beta-3/gamma-2 (Homo sapiens, UniProt P18507+P28472+Q16445)
- EXPERIMENT_SUMMARY: Binding affinity for human recombinant gamma-aminobutyric-acid (GABA) A receptor alpha-6-beta-3-gamma-2
Consider the following compounds and their measured Ki readings.

Consider the reported Ki for these compounds:
CCOC(=O)c1cc2c3cc(OCc4ccccc4)ccc3nc-2c[nH]1	> 10 µM
CC(C)(C)OC(=O)c1ncn2c1[C@@H]1CCCN1C(=O)c1c(Br)cccc1-2	0.0127 µM

Challenge: Indicate its recorded Ki; the compound in question is c1ccc2c(c1)[nH]c1cnc3c4cccnc4[nH]c3c12
Response given: > 10 µM

Challenge: Indicate its recorded Ki; the compound in question is O=c1c2cnc3ccc(Cl)cc3c2[nH]n1-c1ccccc1
Response given: 0.0173 µM

Challenge: Indicate its recorded Ki; the compound in question is O=c1c2cnc3ccccc3c2[nH]n1-c1ccc(Br)cc1
Response given: 0.04 µM

Challenge: Indicate its recorded Ki; the compound in question is Clc1cccn2c1nc1c3c4ccccc4nc-3c[nH]c12
Response given: > 10 µM

* * *

- TARGET_ENTITY: GABA-A receptor; alpha-6/beta-3/gamma-2 (Homo sapiens, UniProt P18507+P28472+Q16445)
- EXPERIMENT_SUMMARY: Binding affinity for human recombinant gamma-aminobutyric-acid (GABA) A receptor alpha-6-beta-3-gamma-2
Consider the following compounds and their measured Ki readings.

CCOC(=O)c1[nH]cc2nc3ccc(OC)cc3c-2c1CC	> 1 µM
CCOC(=O)c1[nH]cc2nc3ccc(O)cc3c-2c1COC	3 µM
COC(=O)c1cc2c3cc(SC#N)ccc3nc-2c[nH]1	> 10 µM
O=c1c2c[nH]c3ccc(Br)cc3c-2nn1-c1ccccc1	0.004 µM
Cc1nnc2n1-c1ccc(Cl)cc1C(c1ccccc1Cl)=NC2 [TRIAZOLAM]	> 10 µM
COC(=O)c1cc2c3cc(NCc4ccc5ccccc5c4)ccc3nc-2c[nH]1	> 10 µM

Challenge: Indicate its recorded Ki; the compound in question is c1ccc2c(c1)[nH]c1cnc3c(nc4ccccn43)c12
Response given: > 10 µM

Challenge: Indicate its recorded Ki; the compound in question is CCOC(=O)c1ncn2c1[C@@H]1CCCN1C(=O)c1ccccc1-2
Response given: > 0.3 µM

Challenge: Indicate its recorded Ki; the compound in question is CC(C)(C)C(=O)Oc1ccc2c(c1)[nH]c1c3c4ccccc4nc-3c[nH]c12
Response given: > 10 µM

Challenge: Indicate its recorded Ki; the compound in question is COc1ccc2ncc3c(=O)n(-c4ccccc4)[nH]c3c2c1
Response given: > 0.01 µM

Challenge: Indicate its recorded Ki; the compound in question is c1ccc(COc2ccc3c(c2)[nH]c2c3ncc3[nH]c4ccccc4c32)cc1
Response given: > 10 µM

* * *

- TARGET_ENTITY: GABA-A receptor; alpha-6/beta-3/gamma-2 (Homo sapiens, UniProt P18507+P28472+Q16445)
- EXPERIMENT_SUMMARY: Binding affinity for human recombinant gamma-aminobutyric-acid (GABA) A receptor alpha-6-beta-3-gamma-2
pKi: −log10 of the molar value.
OBSERVED_PROPERTY: pKi

Consider the reported pKi for these compounds:
CN1C(=O)CN=C(c2ccccc2)c2cc(Br)ccc21	< 5.52
CCOC(=O)c1[nH]cc2nc3ccc(OCc4ccc5ccccc5c4)cc3c-2c1CC	< 5.00
CCCCCCCCOc1ccc2c(c1)c1c(CC)c(C(=O)OCC)ncc1n2C	< 6.00
Fc1ccc2c(c1)[nH]c1c3c4ccccc4nc-3c[nH]c12	< 5.00

Kindly consider the entry below.
Challenge: Indicate its recorded pKi; the compound in question is COCc1c(C(=O)OC(C)C)ncc2[nH]c3ccc(OCc4ccccc4)cc3c12
Response given: < 6.00

* * *

- TARGET_ENTITY: GABA-A receptor; alpha-1/beta-3/gamma-2 (Homo sapiens, UniProt P14867+P18507+P28472)
- Sequence (P14867 whole entry, one chain of several): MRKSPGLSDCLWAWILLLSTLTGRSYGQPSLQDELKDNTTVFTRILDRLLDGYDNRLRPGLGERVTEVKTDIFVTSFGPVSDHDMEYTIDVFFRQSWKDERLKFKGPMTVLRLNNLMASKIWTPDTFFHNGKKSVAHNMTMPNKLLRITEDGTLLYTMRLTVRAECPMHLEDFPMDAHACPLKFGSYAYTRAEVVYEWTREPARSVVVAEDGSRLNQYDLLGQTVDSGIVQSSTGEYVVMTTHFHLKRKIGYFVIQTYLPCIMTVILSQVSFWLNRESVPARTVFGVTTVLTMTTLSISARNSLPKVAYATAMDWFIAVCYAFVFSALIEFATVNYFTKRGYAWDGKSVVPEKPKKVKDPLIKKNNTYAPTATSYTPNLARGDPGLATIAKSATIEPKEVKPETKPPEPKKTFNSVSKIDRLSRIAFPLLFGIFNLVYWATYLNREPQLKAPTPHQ
- EXPERIMENT_SUMMARY: Binding affinity for human recombinant gamma-aminobutyric-acid (GABA) A receptor alpha-1-beta-3-gamma-2
- Assay type: protein-complex assay
Threshold 2 nM: Ki strictly smaller gives condition met, otherwise condition not met.

COc1ccc(-n2nc3c4ccc(OC)cc4[nH]cc-3c2=O)cc1	condition met
c1ccc2c(c1)[nH]c1cnc3c4cccnc4[nH]c3c12	condition not met
S=C=Nc1cc2c3ccccc3nc-2c[nH]1	condition not met
CN1C(=O)CN=C(c2ccccc2)c2cc(C#C[Si](C)(C)C)ccc21	condition not met
Clc1cccn2c1nc1c3c4ccccc4nc-3c[nH]c12	condition not met

Challenge: Hi there! Is Ki for CCCC(=O)c1cc2c(cn1)[nH]c1ccccc12 below 2 nM, do you know?
Response given: condition not met

Challenge: Hi there! Is Ki for COc1ccc2ncc3c(=O)n(-c4ccccc4)[nH]c3c2c1 below 2 nM, do you know?
Response given: condition met

Challenge: Hi there! Is Ki for COc1ccc(-n2nc3c4cc(Cl)ccc4[nH]cc-3c2=O)cc1 below 2 nM, do you know?
Response given: condition met

Challenge: Hi there! Is Ki for CCOC(=O)c1ncn2c1CN(C)C(=O)c1ccccc1-2 [RO-147437] below 2 nM, do you know?
Response given: condition met

Challenge: Hi there! Is Ki for c1ccc2c(c1)[nH]c1cnc3c4ccncc4[nH]c3c12 below 2 nM, do you know?
Response given: condition not met

Challenge: Hi there! Is Ki for O=[N+]([O-])c1ccc2[nH]c3cnc([N+](=O)[O-])cc3c2c1 below 2 nM, do you know?
Response given: condition not met
